System: 996289-038-R-J1-PDC spheroid viability
Method description: Anticancer human tumor 996289-038-R-J1-PDC patient-derived colon adenocarcinoma cell line growth inhibition [PI3K]
Condition set: second compound 1 µM; first compound 10 µM; active compounds read low; spheroids with HUVEC and MSC
Consider the following compounds; for each one, report its viability, T/C.
State just the number; it will be interpreted in %.

Exercise: Consider the compound CC(C)NCC(C(=O)N1CCN(c2ncnc3c2C(C)CC3O)CC1)c1ccc(Cl)cc1 (stereo not given) + CC(Nc1ncnc2nc[nH]c12)c1cc2cccc(Cl)c2c(=O)n1-c1ccccc1 and give its measured viability, T/C.
Key: 74.9

Exercise: Check Cn1nccc1Nc1nccc(-c2ccn(C(CO)c3ccc(Cl)c(F)c3)c(=O)c2)n1 (stereo not given) + COc1c(OCCCN2CCOCC2)ccc2c3n(c(=NC(=O)c4cnc(N)nc4)nc12)CCN3 too.
Key: 9.77

Exercise: Check CC(Cn1ccc(-c2ccc(C#N)c(Cl)c2)n1)NC(=O)c1cc(C(C)O)[nH]n1 (stereo not given) + CC(Nc1ccc2c(c1)OCCn1cc(N3C(=O)OCC3C(F)F)nc1-2)C(N)=O too.
Key: 58.6

Exercise: Check CC1(C)CCC(CN2CCN(c3ccc(C(=O)NS(=O)(=O)c4ccc(NCC5CCOCC5)c([N+](=O)[O-])c4)c(Oc4cnc5[nH]ccc5c4)c3)CC2)=C(c2ccc(Cl)cc2)C1 + Cc1nc(NC(=O)N2CCCC2C(N)=O)sc1-c1ccnc(C(C)(C)C(F)(F)F)c1 too.
Key: 31.6

Exercise: Check Cn1ncc(Cl)c1-c1cc(C(=O)NC(CN)Cc2cccc(F)c2)sc1Cl (stereo not given) + Cc1nc(NC(=O)N2CCCC2C(N)=O)sc1-c1ccnc(C(C)(C)C(F)(F)F)c1 too.
Key: 31.7

---

Consider the following compounds; for each one, report its viability, T/C.
Test system: 996289-038-R-J1-PDC spheroid viability
Method description: Anticancer human tumor 996289-038-R-J1-PDC cell line growth inhibition [PI3K];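 also: luminescence used as a proxy for viable cell amount; spheroids exposed to compounds for seven days before viability read; percent viability relative to DMSO vehicle control as 100%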
Condition set: second compound 0.1 µM; first compound 0.1 µM; active compounds read low; spheroids with HUVEC and MSC
State just the number; it will be interpreted in %.

Exercise: Consider the compound CC(C)NCC(C(=O)N1CCN(c2ncnc3c2C(C)CC3O)CC1)c1ccc(Cl)cc1 (stereo not given) + CC(Nc1ncnc2nc[nH]c12)c1cc2cccc(Cl)c2c(=O)n1-c1ccccc1 and give its measured viability, T/C.
Key: 96.8

Exercise: Check CC1(C)CCC(Nc2ncc(C(F)(F)F)c(-c3c[nH]c4c(P(C)(C)=O)c(C#N)ccc34)n2)CN1 (stereo not given) + Cc1nc(NC(=O)N2CCCC2C(N)=O)sc1-c1ccnc(C(C)(C)C(F)(F)F)c1 too.
Key: 74.1

Exercise: Check CC1(C)CCC(CN2CCN(c3ccc(C(=O)NS(=O)(=O)c4ccc(NCC5CCOCC5)c([N+](=O)[O-])c4)c(Oc4cnc5[nH]ccc5c4)c3)CC2)=C(c2ccc(Cl)cc2)C1 + CC(Nc1ccc2c(c1)OCCn1cc(N3C(=O)OCC3C(F)F)nc1-2)C(N)=O too.
Key: 81.4

Exercise: Check CCCS(=O)(=O)Nc1ccc(F)c(C(=O)c2c[nH]c3ncc(-c4ccc(Cl)cc4)cc23)c1F + CC(Nc1ccc2c(c1)OCCn1cc(N3C(=O)OCC3C(F)F)nc1-2)C(N)=O too.
Key: 71.8

Exercise: Check Cn1ncc(Cl)c1-c1cc(C(=O)NC(CN)Cc2cccc(F)c2)sc1Cl (stereo not given) + CC(Nc1ncnc2nc[nH]c12)c1cc2cccc(Cl)c2c(=O)n1-c1ccccc1 too.
Key: 88.5

Where these numbers come from: PubChem BioAssay AID1963965
